Source: a collection of fitness landscapes (doi:10.1038/s41467-024-54723-y)

Molecular target: TetR (class B, Tn10) (UniProt P04483)
Sequence (P04483 whole entry): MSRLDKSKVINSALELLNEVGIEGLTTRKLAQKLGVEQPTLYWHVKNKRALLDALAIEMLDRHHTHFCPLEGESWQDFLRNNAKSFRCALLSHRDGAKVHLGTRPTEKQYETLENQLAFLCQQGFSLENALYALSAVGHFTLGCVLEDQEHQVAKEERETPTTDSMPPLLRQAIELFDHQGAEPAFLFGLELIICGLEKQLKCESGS
Assay: TetR repression strength (sort-seq, GFP reporter) (relative to tetO2 = 1); higher = stronger repression
Settings: E. coli
In all, about 18,000 sequences were measured (“TetR repression strength (sort-seq, GFP reporter)”: median about 0.23, highest 2% from about 0.68 on). The sample as a whole holds a higher share of the highest values than the screen did.
MEASURED_ATTRIBUTE: TetR repression strength
Keep it simple and answer with nothing but the number.

Example entries and their recorded answers appear below.
Q. For the sequence shown here, "TCCCTGTAAGTCAGCGAGA" , give the reported TetR repression strength.
A. 0.494

Q. "TCCCTGTTAGTTGTCGAGA" ?
A. 0.341

Further cases:
Q. For the sequence shown here, "TCCCGTGGAGTAGCAGAGA" , give the reported TetR repression strength.
A. 0.169

Q. "TCCCTATCAGTGGTAGAGA" ?
A. 1.01

Q. "TCCCATCTAGTTGGAGAGA" ?
A. 0.371

Q. "TCCCACTGAGTTGGAGAGA" ?
A. 0.16

Q. "TCCCTAACAGTGGTAGAGA" ?
A. 0.415

Q. "TCCCTGTCAGTGATCGAGA" ?
A. 0.734

Q. "TCCCAGGGAGTTTTAGAGA" ?
A. 0.305

Q. "TCCCACTCAGTGCCAGAGA" ?
A. 0.287

* * *

Biological target: TetR (class B, Tn10)
Test: TetR repression strength (sort-seq, GFP reporter) (relative to tetO2 = 1); higher = stronger repression
Conditions: E. coli
Over roughly 18,000 sequences, “TetR repression strength (sort-seq, GFP reporter)” has its median near 0.23; the highest 2% begin near 0.68. This is one part of a sample in which the highest values are shown more often than they occur.
MEASURED_ATTRIBUTE: TetR repression strength
Keep it simple and answer with nothing but the number.

Q. For the sequence shown here, "TCCCAGTGAGTCCATGAGA" , give the reported TetR repression strength.
A. 0.163

Q. "TCCCTTGCAGTATGAGAGA" ?
A. 0.157

Q. "TCCCCGCGAGTTGTAGAGA" ?
A. 0.0957

Q. "TCCCATCTAGTGTGTGAGA" ?
A. 0.253

Q. "TCCCTATCAGTCATAGAGA" ?
A. 0.924

Further cases:
Q. For the sequence shown here, "TCCCCTCGAGTGCCGGAGA" , give the reported TetR repression strength.
A. 0.442

Q. "TCCCCGTAAGTACAGGAGA" ?
A. 0.368

Q. "TCCCCTTGAGTATGTGAGA" ?
A. 0.409

Q. "TCCCTATCAGTCGTAGAGA" ?
A. 0.557

Q. "TCCCTATCAGTCGCGGAGA" ?
A. 0.456

Q. "TCCCGATCAGTGCAGGAGA" ?
A. 0.299

Q. "TCCCTTGTAGTCATGGAGA" ?
A. 0.687

* * *

Biological target: TetR (class B, Tn10)
Assay: TetR repression strength (sort-seq, GFP reporter) (relative to tetO2 = 1); higher = stronger repression
Conditions: E. coli
Whole data set: some 18,000 sequences, median “TetR repression strength (sort-seq, GFP reporter)” near 0.23, cut for the highest 2% near 0.68. What follows is part of a selection rich in the highest values, with near analogues and random picks from the rest.
Lab note: anything with TetR repression strength at or over 0.3 counts as 1; the rest go in 0.

Q. Hello, I need to know if "TCCCGTCTAGTTTCCGAGA" has measured TetR repression strength not below 0.3. Thanks!
A. 0

Further cases:
Q. Hello, I need to know if "TCCCCTTGAGTGGACGAGA" has measured TetR repression strength not below 0.3. Thanks!
A. 1

Q. "TCCCAAGTAGTCAATGAGA" ?
A. 1

Q. "TCCCAATGAGTCAATGAGA" ?
A. 0

Q. "TCCCGAATAGTATCAGAGA" ?
A. 0

Q. "TCCCCCACAGTTATAGAGA" ?
A. 1

Q. "TCCCTCGTAGTGTTTGAGA" ?
A. 1

Q. "TCCCTAGAAGTTATGGAGA" ?
A. 1

Q. "TCCCAAAGAGTGGGGGAGA" ?
A. 0

Q. "TCCCTGGTAGTACGAGAGA" ?
A. 0

Q. "TCCCGGAGAGTATCAGAGA" ?
A. 1

Q. "TCCCTTAAAGTACAGGAGA" ?
A. 0

Q. "TCCCCGTGAGTCAGGGAGA" ?
A. 0

Q. "TCCCCGTGAGTCTGAGAGA" ?
A. 0

Q. "TCCCTAGGAGTACGAGAGA" ?
A. 1

Q. "TCCCGGTCAGTGCAGGAGA" ?
A. 1
